ASSAY EXPLANATION: Terminal half life in cynomolgus monkey at 2 mg/kg, iv after 1 hr
Type: ADME, organism-based, Macaca fascicularis
Set-up: dose 2 mg/kg, route intravenous
COND: in vivo, read-out: beta t1/2 (converted)
OUTCOME MEASURE: half-life (h)
Only the number, expressed in h, is required.

[ask] // query half-life value for entry CCNC(=O)C[C@@H]1N=C(c2ccc(Cl)cc2)c2cc(OC)ccc2-n2c(C)nnc21 [MOLIBRESIB]
[reply] 1.5

---

ASSAY EXPLANATION: Oral bioavailability in cynomolgus monkey at 5 mg/kg after 1 hr
Format: ADME, organism-based, Macaca fascicularis
COND: in vivo
OUTCOME MEASURE: bioavailability

[ask] Which bioavailability value belongs to CCNC(=O)C[C@@H]1N=C(c2ccc(Cl)cc2)c2cc(OC)ccc2-n2c(C)nnc21 ?
[reply] 52%

---

Recorded half-life by entry
ASSAY EXPLANATION: Half life in buffer at pH 2 by HPLC analysis
Assay type: physicochemical
Report only the number, with the unit min understood.

[ask] half-life for CCOC(=O)NC1N=C(c2ccc(Cl)cc2)c2ccccc2-n2c(C)nnc21 (stereo unspecified) ?
[reply] 45

[ask] Name the reported half-life value associated with the compound CCOC(=O)N[C@@H]1N=C(c2ccccc2)c2ccccc2-n2c(C)nnc21
[reply] 13.8

[ask] Sample Cc1nnc2n1-c1ccccc1C(c1ccccc1)=NC2NC(=O)OCc1ccc(F)cc1 (stereo unspecified) — what was its half-life?
[reply] 19.8

[ask] Using the record for Cc1nnc2n1-c1ccccc1C(c1ccccc1)=NC2NC(=O)OCc1ccccc1 (stereo unspecified) , report its half-life.
[reply] 34.8

Field: next compound
[ask] Look at this compound and give its reported half-life. CCOC(=O)NC1N=C(c2ccccc2)c2ccccc2-n2c(C)nnc21 (stereo unspecified)
[reply] 33.6

---

ASSAY EXPLANATION: Terminal half life in beagle dog at 1 mg/kg, iv after 1 hr
Assay type: ADME, organism-based, Canis lupus familiaris
Set-up: dose 1 mg/kg, route intravenous
COND: in vivo, read-out: beta t1/2 (converted)
OUTCOME MEASURE: half-life (h)
Express it in h; write the number only.

[ask] Would you kindly share the measured half-life for CCNC(=O)C[C@@H]1N=C(c2ccc(Cl)cc2)c2cc(OC)ccc2-n2c(C)nnc21 [MOLIBRESIB] ?
[reply] 5.9

---

ASSAY EXPLANATION: Terminal half life in CD rat at 1 mg/kg, iv after 1 hr
Format: ADME, organism-based
Design: dose 1 mg/kg, route intravenous
COND: in vivo, read-out: beta t1/2 (converted)
OUTCOME MEASURE: half-life (min)
Report the figure in min without appending any unit label.

[ask] Sample CCNC(=O)C[C@@H]1N=C(c2ccc(Cl)cc2)c2cc(OC)ccc2-n2c(C)nnc21 — what was its half-life?
[reply] 30

---

ASSAY EXPLANATION: in vivo
COND: CD, rat, iv, 1 mg/kg
OUTCOME MEASURE: clearance at 1 h (mL/min/kg)
Entry rule: numbers only, all in mL/min/kg.

[ask] What measured clearance at 1 h goes with CCNC(=O)C[C@@H]1N=C(c2ccc(Cl)cc2)c2cc(OC)ccc2-n2c(C)nnc21 ?
[reply] 63

---

ASSAY EXPLANATION: AUC (0 to infinity) in beagle dog at 1 mg/kg, iv and 3 mg/kg, po after 1 hr
Format: ADME, organism-based, Canis lupus familiaris
COND: plasma
OUTCOME MEASURE: AUC(0-inf) (ng·h/mL)
Please give a number only; it is taken to be in ng·h/mL.

[ask] Consider the compound CCNC(=O)C[C@@H]1N=C(c2ccc(Cl)cc2)c2cc(OC)ccc2-n2c(C)nnc21 and give its measured AUC(0-inf).
[reply] 4740

---

ASSAY EXPLANATION: in vivo
COND: Balb/c, mouse, iv, 1 mg/kg
OUTCOME MEASURE: clearance at 1 h (mL/min/kg)
Numbers only; they are read as mL/min/kg.

[ask] Which clearance at 1 h is reported for this compound? CCNC(=O)C[C@@H]1N=C(c2ccc(Cl)cc2)c2cc(OC)ccc2-n2c(C)nnc21
[reply] 75

---

ASSAY EXPLANATION: Volume of distribution in beagle dog at 1 mg/kg, iv and 3 mg/kg, po after 1 hr
Assay type: ADME, organism-based, Canis lupus familiaris
COND: in vivo
OUTCOME MEASURE: Vd (L/kg)
# output: bare number, implied unit L/kg

[ask] Which measured Vd value corresponds to CCNC(=O)C[C@@H]1N=C(c2ccc(Cl)cc2)c2cc(OC)ccc2-n2c(C)nnc21 ?
[reply] 1.8

---

List of IC50 tested on Bromodomain-containing protein 2 (Homo sapiens, UniProt P25440).
Sequence (P25440 whole entry): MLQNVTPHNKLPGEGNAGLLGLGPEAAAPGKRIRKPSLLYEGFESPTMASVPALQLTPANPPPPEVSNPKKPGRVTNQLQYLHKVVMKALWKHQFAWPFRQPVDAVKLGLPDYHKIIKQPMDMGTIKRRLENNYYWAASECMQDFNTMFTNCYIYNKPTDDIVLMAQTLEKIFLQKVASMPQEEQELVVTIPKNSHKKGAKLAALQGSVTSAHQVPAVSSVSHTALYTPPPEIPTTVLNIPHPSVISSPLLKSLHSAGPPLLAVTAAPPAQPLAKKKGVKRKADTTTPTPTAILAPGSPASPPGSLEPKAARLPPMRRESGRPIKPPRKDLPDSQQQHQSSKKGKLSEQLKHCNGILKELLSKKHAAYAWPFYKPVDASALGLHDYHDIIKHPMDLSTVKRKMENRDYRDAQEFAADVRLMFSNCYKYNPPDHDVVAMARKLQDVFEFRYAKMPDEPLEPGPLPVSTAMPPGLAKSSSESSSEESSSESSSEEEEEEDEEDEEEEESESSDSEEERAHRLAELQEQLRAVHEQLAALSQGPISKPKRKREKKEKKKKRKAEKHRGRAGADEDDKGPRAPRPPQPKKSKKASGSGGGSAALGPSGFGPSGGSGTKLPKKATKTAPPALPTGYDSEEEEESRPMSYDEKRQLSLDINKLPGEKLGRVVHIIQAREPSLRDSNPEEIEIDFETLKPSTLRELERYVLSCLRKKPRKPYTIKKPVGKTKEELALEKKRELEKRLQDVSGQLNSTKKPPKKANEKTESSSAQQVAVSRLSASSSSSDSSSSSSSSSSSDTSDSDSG
Your answer is read as nM, so omit the unit and give the number.

[ask] # get_value(readout='IC50', item= COc1ccc(C2=NC(NC(=O)OCc3ccccc3)c3nnc(C)n3-c3ccccc32)cc1 (stereo not drawn) )
[reply] 2000

***
[ask] May I ask what IC50 has been recorded for Cc1nnc2n1-c1ccccc1C(c1ccccc1)=NC2NC(=O)NCc1ccccc1 (stereo not drawn) ?
[reply] 2000

[ask] Which IC50 is reported for this compound? Cc1nnc2n1-c1ccccc1C(c1ccccc1)=NC2NC(=O)OCc1ccc(F)cc1 (stereo not drawn)
[reply] 2000
